Biological target: Neuropeptide Y receptor type 4 (Homo sapiens)
Sequence (P50391 whole entry): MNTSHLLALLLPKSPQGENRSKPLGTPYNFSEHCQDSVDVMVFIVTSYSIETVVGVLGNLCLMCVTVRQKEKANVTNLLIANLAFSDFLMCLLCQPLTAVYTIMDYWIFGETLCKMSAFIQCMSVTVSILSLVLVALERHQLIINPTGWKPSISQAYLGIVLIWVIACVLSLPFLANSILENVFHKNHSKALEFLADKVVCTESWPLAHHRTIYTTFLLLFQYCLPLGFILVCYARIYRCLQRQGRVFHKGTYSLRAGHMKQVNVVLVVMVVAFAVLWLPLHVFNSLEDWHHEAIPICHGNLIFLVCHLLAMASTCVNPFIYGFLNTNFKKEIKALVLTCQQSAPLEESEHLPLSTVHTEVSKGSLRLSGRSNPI
Assay: Agonist potency at human Y4 receptor expressed in HEK293T-NlucN-mGSi/Y4R-NlucC cells assessed as intrinsic activity by miniGsi protein recruitment assay relative to hPP
Type: cell-based
Details: filed as agonist
Starred links: 1 amine or outer side, 2 acyl side, 3 side chain; linkers in the order of their positions; H or OH if unused. Non-standard residues stand in square brackets, D forms with d. Residues, ends and D or L forms follow the SMILES beside them. X2 = O=C([C@H]1C[C@H](c2ccccc2)[C@H]1CN[*:1])[*:2]
READOUT: Intrinsic activity

1. CC(=O)N[C@@H](CCCNC(=N)N)C(=O)N[C@@H](Cc1ccc(O)cc1)C(=O)N[C@@H](CCCNC(=N)N)C(=O)N[C@@H](CC(C)C)C(=O)N[C@@H](CCCNC(=N)N)C(=O)N[C@@H](Cc1ccc(O)cc1)C(N)=O
2. CC(=O)N[C@@H](CCCNC(=N)N)C(=O)NC[C@H]1[C@@H](C(=O)N[C@@H](CCCNC(=N)N)C(=O)N[C@@H](CC(C)C)C(=O)N[C@@H](CCCNC(=N)N)C(=O)N[C@@H](Cc2ccc(O)cc2)C(N)=O)C[C@@H]1c1ccccc1 (Ac-R[X2]RLRY-NH2)
Enquiry: Between the two listed entries 1 and 2 , which has its Intrinsic activity at the higher number? Selection: enter the item's label.
Return: 1
